Entry source: patent US20250152746A1

Test system: PCSK9 gene splice site
Assay type: cell-based, cynomolgus monkey
recorded endpoint: Cynomolgous Primary Hepatocytes-splice site editing % 2500 ng/mL
Enter the number, and then the unit.

// worked examples, Cynomolgous Primary Hepatocytes-splice site editing % 2500 ng/mL included
GA073: PCSK9 gRNA; protospacer GCTTACCTGTCTGTGGAAGC (SEQ ID NO: 67), splice donor of intron 4 (nucleic acid, listed as RNA; modified_base 1: mod_base = OTHER; note = 2'-O-Methyl-guanosine phosphorothioate; modified_base 2: mod_base = OTHER; note = 2'-O-Methyl-cytidine phosphorothioate; modified_b) guide: GCTTACCTGTCTGTGGAAGCGTTTTAGAGCTAGAAATAGCAAGTTAAAATAAGGCTAGTCCGTTATCAACTTGAAAAAGTGGCACCGAGTCGGTGCTTTT    23.2%
GA074: PCSK9 gRNA; protospacer TGCTTACCTGTCTGTGGAAG (SEQ ID NO: 68), splice donor of intron 4 (nucleic acid, listed as RNA; modified_base 1: mod_base = OTHER; note = 2'-O-Methyl-uridine phosphorothioate; modified_base 2: mod_base = OTHER; note = 2'-O-Methyl-guanosine phosphorothioate; modified_ba) guide: TGCTTACCTGTCTGTGGAAGGTTTTAGAGCTAGAAATAGCAAGTTAAAATAAGGCTAGTCCGTTATCAACTTGAAAAAGTGGCACCGAGTCGGTGCTTTT    20.1%
GA087: PCSK9 gRNA for ABE8.8 splice site editing, Human/Cyno (nucleic acid, 2'-O-methyl at 1, 2, other sugars and backbone not given here; further chemistry not fully specified, PCSK9 gRNA for ABE8.8 splice site editing, Human/Cyno) guide: UCACCTGCTCCTGAGGGGCCGTTTTAGAGCTAGAAATAGCAAGTTAAAATAAGGCTAGTCCGTTATCAACTTGAAAAAGTGGCACCGAGTCGGTGCTTTT    0.2%

State the recorded Cynomolgous Primary Hepatocytes-splice site editing % 2500 ng/mL for every item in the following list.
1. GA077: PCSK9 gRNA for ABE8.8 splice site editing, Human/Cyno (nucleic acid, 2'-O-methyl at 1, 2, other sugars and backbone not given here; further chemistry not fully specified, PCSK9 gRNA for ABE8.8 splice site editing, Human/Cyno) guide: UCCCAGGCCTGGAGTTTATTGTTTTAGAGCTAGAAATAGCAAGTTAAAATAAGGCTAGTCCGTTATCAACTTGAAAAAGTGGCACCGAGTCGGTGCTTTT
2. GA088: PCSK9 gRNA for ABE8.8 splice site editing, Human/Cyno (nucleic acid, 2'-O-methyl at 1, 2, other sugars and backbone not given here; further chemistry not fully specified, PCSK9 gRNA for ABE8.8 splice site editing, Human/Cyno) guide: CCCAGGCTGCAGCTCCCACTGTTTTAGAGCTAGAAATAGCAAGTTAAAATAAGGCTAGTCCGTTATCAACTTGAAAAAGTGGCACCGAGTCGGTGCTTTT
3. GA081: PCSK9 gRNA for ABE8.8 splice site editing, Human/Cyno (nucleic acid, listed as RNA; modified_base 1: mod_base = OTHER; note = 2'-O-Methyl-uridine phosphorothioate; modified_base 2: mod_base = OTHER; modified_base, PCSK9 gRNA for ABE8.8 splice site editing, Human/Cyno) guide: TTTCCAGGTCATCACAGTTGGTTTTAGAGCTAGAAATAGCAAGTTAAAATAAGGCTAGTCCGTTATCAACTTGAAAAAGTGGCACCGAGTCGGTGCTTTT

Result ::
1: 5.7%; 2: 23.0%; 3: 0.3%
